Measured apparent KD of MS2 coat protein, listed per entry.
- Tested on: MS2 coat protein
- Method Description: apparent KD of MS2 coat protein; designed switch direction (-1 OFF switch, 1 ON switch): -1; higher = weaker reporter binding
- Assay Context: Eterna round: R95; input ligand: microRNA oligo, concentration not stated
Be sure to follow the number with its unit.

Worked examples follow.
Biopolymer Sequence: UGCAUGGUAGGAUAUACGGAACAUUAGGGUUUGUUGUGUGGACAUGAGGAUCACCCAUGUAGAAGGGCCGUGCU [JL-ex2-2.15 mat747 mod] (puzzle: Exclusion 2)
apparent KD of MS2 coat protein: 40.4 nM
//
Biopolymer Sequence: UAUAAGGUAGGAUAUACGAAUAAAUAGGGUAGAAUAAUAACACAUGAGGAUCACCCAUGUAGAAGGACCAAGAU [Mat - Exclusion 2 - Mod of my Tesla design - D29] (puzzle: Exclusion 2)
apparent KD of MS2 coat protein: 20.5 nM
//
Biopolymer Sequence: AUUUAGAGAGGAUAUAUAAAGUGAAACAUGAGGAUCACCCAUGUAAUUUUAUGGAUGUAAAUAGAAGGCUCAUUUU [Mat - Exclusion 5 - JL mod - D3] (puzzle: Exclusion 5)
apparent KD of MS2 coat protein: 36.5 nM
//
Biopolymer Sequence: GAGAAGGUAGGAUAUACGAAUAAAUAGGGUAGGAAGAAGACACAUGAGGAUCACCCAUGUAGAAGGACCAAGAG [Mat - Exclusion 2 - Mod of my Tesla design - D36] (puzzle: Exclusion 2)
apparent KD of MS2 coat protein: 14.6 nM
//
Biopolymer Sequence: GCAUGGUGAGGAUAUGCAGAAGGGCAACGGUCAUCAUGACUACAUGAGGAUCACCCAUGUAGAAGGCACACAUG [Betearor] (puzzle: Exclusion 2)
apparent KD of MS2 coat protein: 42.5 nM

Item AAGGAUAGAGGAUAUACAUAGAUACAGAUUCAUGUAGUCCUACAUGAGGAUCACCCAUGUAGAAGGCUAUCCUA [Fiskers Ex 2 - 12] (puzzle: Exclusion 2) : provide apparent KD of MS2 coat protein 15.7 nM

Item AGUAACCGUCACGAAAGUGAUGGUUACACAAGUAAUGAAACAUGAGGAUCACCCAUGUCCUCAUUUGCUCGUCUUAU [Sensor 3 - 39] (puzzle: Sensor v3, turn-off variant 2) : provide apparent KD of MS2 coat protein 362 nM

Item CUUUUGUGAGGAUAUCAGUAUUAAAUAAAUAAAAUUACUACUGAGAAGGCACAUGAGGAUCACCCAUGUUCCUC [salish99_ex3_r3_074] (puzzle: Exclusion 4) : provide apparent KD of MS2 coat protein 37.5 nM

---

Measured apparent KD of MS2 coat protein, listed per entry.
- Tested on: MS2 coat protein
- Method Description: apparent KD of MS2 coat protein; designed switch direction (-1 OFF switch, 1 ON switch): -1; higher = weaker reporter binding
- Assay Context: Eterna round: R95; input ligand: none
Unit nM implied. Number only.

Biopolymer Sequence: UUUAAUUUUUUUUUUUUACAAGCUUUUUGCUCGUCUUAUACAUGAGGAUCACCCAUGUGGAUGGAGGGUAAAUUAUC [JMF 85] (puzzle: Sensor v3, turn-off variant 2)
Measurement Units: nM
apparent KD of MS2 coat protein: 16.9
//
Biopolymer Sequence: GAGAAGUGAGGAUAUACGAUAAGGAUGAAAGGAAGGAAUGAGUAGAAGGCACAUGAGGAUCACCCAUGUAGAGU [JR_Exclu4_Sub079] (puzzle: Exclusion 4)
Measurement Units: nM
apparent KD of MS2 coat protein: 26.3
//
Biopolymer Sequence: GUGUAGUAAGGAUAUACAUGAGGAUCACCCAUGUGAGUAAGAUAGAAUAAGAUAAAGUGUAGAAGGUAUAGUGU [Excluse me!!! 16 - Jieux - Exclusion 3] (puzzle: Exclusion 3)
Measurement Units: nM
apparent KD of MS2 coat protein: 48.9
//
Biopolymer Sequence: AAGAAACAUGAGGAUCACCCAUGUGAGGAUAUGAUCAAGAAAAGAAAAGAAAGAAGAGUCAGAAGGCACAAAGG [salish99-ex1_r3_065] (puzzle: Exclusion 1)
Measurement Units: nM
apparent KD of MS2 coat protein: 418
//
Biopolymer Sequence: GGUACUAACACGAAAGUGUUAGUACAAUAAGCUAGUGGAACAUGAGGAUCACCCAUGUCCUCAUUAGCUCGUCUUAG [Mat - Sensor v3 - Turn-off var 2 - D37] (puzzle: Sensor v3, turn-off variant 2)
Measurement Units: nM
apparent KD of MS2 coat protein: 12.7
//
Biopolymer Sequence: AUAAUAAAGGAGGAUAUCGUUACGGAAACGUAACGAGAAGGUCUAACAUGAGGAUCACCCAUGUUCCUCAAAUA [Mat - Exclusion 6 - Eli Mod - D53] (puzzle: Exclusion 6)
Measurement Units: nM
apparent KD of MS2 coat protein: 37.4

Item GAGUAGGGAGGAUAUACGUGCUCAAUCCCGCGAAGCGGGAAACAUGAGGAUCACCCAUGUAGAAGGCCCAUAAA [Inceveus] (puzzle: Exclusion 2) : provide apparent KD of MS2 coat protein 185

Item GAAAAGGUAGGAUAUACGAAAAAAAAGGGUAGAAAAAAAACACAUGAGGAUCACCCAUGUAGAAGGGCCAAAAG [salish99_ex2_r3_032] (puzzle: Exclusion 2) : provide apparent KD of MS2 coat protein 45.3

Item UUGCUCCCUUAGUACUCUACAAGUUUUUUGUUCGUUUUAACAUGAGGAUCACCCAUGUCUAGUGGAUCUGAUCGGGU [JL ViennaUCT Isreen mod 5] (puzzle: Sensor v3, turn-off variant 2) : provide apparent KD of MS2 coat protein 178

Item GUAAUUAUAUAGGAUAUCGAACUUAUAAUUUAACGAGAAGGAUGAACAUGAGGAUCACCCAUGUGGUAUCAUGG [JL-ex6-3.07] (puzzle: Exclusion 6) : provide apparent KD of MS2 coat protein 284

Origin of measurements: the supplement of paper PMC9170038
